Recorded values, source patent US20190106460A1.

target: Skp2 (Homo sapiens, UniProt Q13309); experiment: Selectivity assay vs other E3s: Skp2; type: biochemical; settings: read-out: % Inhibition Skp2 @ 10 μM
Sequence (Q13309 whole entry, species assumed): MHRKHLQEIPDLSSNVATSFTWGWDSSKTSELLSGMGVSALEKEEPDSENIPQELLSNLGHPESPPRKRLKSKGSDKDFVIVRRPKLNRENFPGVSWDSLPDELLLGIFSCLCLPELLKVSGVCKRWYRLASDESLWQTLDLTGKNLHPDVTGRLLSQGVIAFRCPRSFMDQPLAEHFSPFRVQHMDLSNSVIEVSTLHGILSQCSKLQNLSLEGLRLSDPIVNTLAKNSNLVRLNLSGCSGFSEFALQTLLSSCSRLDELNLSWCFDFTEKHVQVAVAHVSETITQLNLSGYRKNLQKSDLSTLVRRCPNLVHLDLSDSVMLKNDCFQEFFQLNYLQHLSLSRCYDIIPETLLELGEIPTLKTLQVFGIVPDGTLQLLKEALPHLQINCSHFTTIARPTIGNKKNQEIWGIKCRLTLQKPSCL
Sequence (P63208 whole entry partner, species assumed): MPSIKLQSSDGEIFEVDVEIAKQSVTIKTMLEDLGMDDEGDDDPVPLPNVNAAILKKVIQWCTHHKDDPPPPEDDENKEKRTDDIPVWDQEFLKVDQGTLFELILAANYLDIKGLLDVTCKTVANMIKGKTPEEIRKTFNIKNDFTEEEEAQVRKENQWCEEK
Sequence (Q13616 whole entry partner, species assumed): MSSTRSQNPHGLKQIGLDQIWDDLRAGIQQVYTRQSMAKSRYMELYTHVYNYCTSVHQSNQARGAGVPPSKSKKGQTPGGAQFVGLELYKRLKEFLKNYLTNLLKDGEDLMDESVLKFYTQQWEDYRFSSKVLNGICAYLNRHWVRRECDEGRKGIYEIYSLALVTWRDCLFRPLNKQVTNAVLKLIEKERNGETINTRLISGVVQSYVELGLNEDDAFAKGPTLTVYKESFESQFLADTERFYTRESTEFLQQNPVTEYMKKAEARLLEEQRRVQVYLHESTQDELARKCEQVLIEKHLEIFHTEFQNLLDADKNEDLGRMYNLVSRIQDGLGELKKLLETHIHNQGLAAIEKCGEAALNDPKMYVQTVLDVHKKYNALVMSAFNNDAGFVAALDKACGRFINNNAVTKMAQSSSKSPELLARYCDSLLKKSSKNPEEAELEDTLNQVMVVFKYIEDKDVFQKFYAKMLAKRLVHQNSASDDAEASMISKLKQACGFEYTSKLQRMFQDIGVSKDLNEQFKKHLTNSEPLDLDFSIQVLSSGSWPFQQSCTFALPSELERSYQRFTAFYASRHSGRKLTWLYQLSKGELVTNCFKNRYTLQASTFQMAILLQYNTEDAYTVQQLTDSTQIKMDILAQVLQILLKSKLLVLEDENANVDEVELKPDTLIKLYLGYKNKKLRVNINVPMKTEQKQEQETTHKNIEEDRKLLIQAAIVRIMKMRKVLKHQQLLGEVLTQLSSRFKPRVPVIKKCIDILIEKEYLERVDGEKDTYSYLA
Sequence (P62877 whole entry partner, species assumed): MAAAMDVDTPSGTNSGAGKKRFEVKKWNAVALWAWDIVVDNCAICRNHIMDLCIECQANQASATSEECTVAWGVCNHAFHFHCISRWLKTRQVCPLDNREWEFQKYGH
Starred links: 1 amine or outer side, 2 acyl side, 3 side chain; linkers in the order of their positions; H or OH if unused. Non-standard residues stand in square brackets, D forms with d. Residues, ends and D or L forms follow the SMILES beside them. *: point of attachment. Phe(4-NO2) = N[C@@H](Cc1ccc([N+](=O)[O-])cc1)C(=O)O; 2Naphthylsulfonyl = O=S(=O)(c1ccc2ccccc2c1)*; Phe(3-F) = N[C@@H](Cc1cccc(F)c1)C(=O)O; Suc = O=C(CCC(=O)[*:2])[*:1]
metric-name: inhibition at 10 µM (%)
Field format: number, assumed %, no unit text.

Data request, read-out inhibition at 10 µM, for NC(=O)[C@H](CCC(=O)O)NC(=O)[C@H](Cc1c[nH]c2ccccc12)NC(=O)[C@H](Cc1cccc(F)c1)NC(=O)CNC(=O)[C@H](CCC(=O)O)NC(=O)[C@@H](CC(=O)O)NS(=O)(=O)c1ccc2ccccc2c1 [UBP031, 2-NaphthylSO2-dEGF(3F)WE-NH2] (2Naphthylsulfonyl-[dD]EG[Phe(3-F)]WE-NH2) 0

What value of inhibition at 10 µM has been reported for the following molecule? NC(=O)[C@H](CCC(=O)O)NC(=O)[C@H](Cc1ccc([N+](=O)[O-])cc1)NC(=O)[C@H](Cc1ccc(O)cc1)NC(=O)CNC(=O)[C@H](CCC(=O)O)NC(=O)CCC(=O)O [UBP013, Suc-EGYF(4NO2)E-NH2] (Suc-EGY[Phe(4-NO2)]E-NH2) 11

---

Consider the following compounds; for each one, report its inhibition at 10 µM.
biological target: FBW7/Skp1 (Homo sapiens); test: Selectivity assay vs other E3s: Fbw7; assay type: biochemical; conditions: read-out: % Inhibition Fbw7 @ 10 μM
Sequence (Q969H0 whole entry, species assumed, one chain of several): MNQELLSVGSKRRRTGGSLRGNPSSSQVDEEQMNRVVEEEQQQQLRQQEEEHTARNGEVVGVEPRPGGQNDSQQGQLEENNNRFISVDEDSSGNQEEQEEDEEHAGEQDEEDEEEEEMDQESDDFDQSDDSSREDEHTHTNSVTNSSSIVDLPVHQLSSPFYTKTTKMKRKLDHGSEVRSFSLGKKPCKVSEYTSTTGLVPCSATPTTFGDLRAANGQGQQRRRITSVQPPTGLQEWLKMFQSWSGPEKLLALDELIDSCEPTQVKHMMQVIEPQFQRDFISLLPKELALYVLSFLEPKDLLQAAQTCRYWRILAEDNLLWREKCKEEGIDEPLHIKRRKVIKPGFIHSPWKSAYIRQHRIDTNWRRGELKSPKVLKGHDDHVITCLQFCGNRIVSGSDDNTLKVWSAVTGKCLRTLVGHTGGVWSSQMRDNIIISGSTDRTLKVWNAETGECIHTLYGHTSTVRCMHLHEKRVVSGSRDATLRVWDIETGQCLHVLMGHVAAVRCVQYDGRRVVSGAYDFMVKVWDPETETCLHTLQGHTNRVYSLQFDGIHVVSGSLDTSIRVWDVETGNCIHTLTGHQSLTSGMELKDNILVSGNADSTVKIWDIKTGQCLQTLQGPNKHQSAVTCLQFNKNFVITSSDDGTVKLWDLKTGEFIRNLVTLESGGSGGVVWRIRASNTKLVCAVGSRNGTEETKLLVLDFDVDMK
Starred links: 1 amine or outer side, 2 acyl side, 3 side chain; linkers in the order of their positions; H or OH if unused. Non-standard residues stand in square brackets, D forms with d. Residues, ends and D or L forms follow the SMILES beside them. *: point of attachment. Phe(4-NO2) = N[C@@H](Cc1ccc([N+](=O)[O-])cc1)C(=O)O; Benzenesulfonyl(4-OMe) = COc1ccc(S(=O)(=O)*)cc1; Phe(3-F) = N[C@@H](Cc1cccc(F)c1)C(=O)O; Suc = O=C(CCC(=O)[*:2])[*:1]; Tos = Cc1ccc(S(=O)(=O)*)cc1; Bz = O=C(c1ccccc1)*
Quick reminder: number only, in %, skip the unit.

I would be grateful if you could share the reported inhibition at 10 µM for NC(=O)[C@H](CCC(=O)O)NC(=O)[C@H](Cc1c[nH]c2ccccc12)NC(=O)[C@H](Cc1cccc(F)c1)NC(=O)CNC(=O)[C@H](CCC(=O)O)NC(=O)[C@@H](CC(=O)O)NC(=O)c1ccccc1 [UBP018, Bz-dEGF(3F)WE-NH2] (Bz-[dD]EG[Phe(3-F)]WE-NH2) . 0

# get_value(readout='inhibition at 10 µM', item= NC(=O)[C@H](CCC(=O)O)NC(=O)[C@H](Cc1ccc([N+](=O)[O-])cc1)NC(=O)[C@H](Cc1cccc(F)c1)NC(=O)CNC(=O)[C@H](CCC(=O)O)NC(=O)CCC(=O)O [UBP004, Suc-EGF(3F)F(4NO2)E-NH2] (Suc-EG[Phe(3-F)][Phe(4-NO2)]E-NH2) ) 0

# lookup: inhibition at 10 µM of COc1ccc(S(=O)(=O)N[C@H](CC(=O)O)C(=O)N[C@@H](CCC(=O)O)C(=O)NCC(=O)N[C@@H](Cc2cccc(F)c2)C(=O)N[C@@H](Cc2c[nH]c3ccccc23)C(=O)N[C@@H](CCC(=O)O)C(N)=O)cc1 [4-(MeO)-PhSO2-dEGF(3F)WE-NH2] ({Benzenesulfonyl(4-OMe)}-[dD]EG[Phe(3-F)]WE-NH2) 0

What does the record list as inhibition at 10 µM for Cc1ccc(S(=O)(=O)N[C@H](CC(=O)O)C(=O)N[C@@H](CCC(=O)O)C(=O)NCC(=O)N[C@@H](Cc2cccc(F)c2)C(=O)N[C@@H](Cc2c[nH]c3ccccc23)C(=O)N[C@@H](CC(=O)O)C(N)=O)cc1 [UBP027, Ts-dEGF(3F)WD-NH2] (Tos-[dD]EG[Phe(3-F)]WD-NH2) ? 3
